- ASSAY_TARGET: human α4β2 (Homo sapiens, UniProt P17787+P43681)
- Sequence (P43681 29-627 limits assumed): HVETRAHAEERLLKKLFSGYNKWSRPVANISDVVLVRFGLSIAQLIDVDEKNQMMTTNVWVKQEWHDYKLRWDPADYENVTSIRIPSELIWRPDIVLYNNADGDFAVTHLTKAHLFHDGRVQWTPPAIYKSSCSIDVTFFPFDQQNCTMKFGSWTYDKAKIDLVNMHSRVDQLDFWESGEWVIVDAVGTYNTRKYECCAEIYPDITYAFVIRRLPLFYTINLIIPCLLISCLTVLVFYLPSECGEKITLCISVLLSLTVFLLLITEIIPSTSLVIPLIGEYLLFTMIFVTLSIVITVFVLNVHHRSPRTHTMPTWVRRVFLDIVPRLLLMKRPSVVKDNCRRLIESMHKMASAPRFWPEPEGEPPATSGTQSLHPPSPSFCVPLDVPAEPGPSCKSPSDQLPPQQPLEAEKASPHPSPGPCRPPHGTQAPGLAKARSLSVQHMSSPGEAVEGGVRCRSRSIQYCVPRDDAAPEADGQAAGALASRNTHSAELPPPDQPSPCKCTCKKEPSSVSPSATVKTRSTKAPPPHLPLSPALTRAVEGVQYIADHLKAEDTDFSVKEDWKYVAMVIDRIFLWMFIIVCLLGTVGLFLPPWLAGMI
- Sequence (P17787 26-502): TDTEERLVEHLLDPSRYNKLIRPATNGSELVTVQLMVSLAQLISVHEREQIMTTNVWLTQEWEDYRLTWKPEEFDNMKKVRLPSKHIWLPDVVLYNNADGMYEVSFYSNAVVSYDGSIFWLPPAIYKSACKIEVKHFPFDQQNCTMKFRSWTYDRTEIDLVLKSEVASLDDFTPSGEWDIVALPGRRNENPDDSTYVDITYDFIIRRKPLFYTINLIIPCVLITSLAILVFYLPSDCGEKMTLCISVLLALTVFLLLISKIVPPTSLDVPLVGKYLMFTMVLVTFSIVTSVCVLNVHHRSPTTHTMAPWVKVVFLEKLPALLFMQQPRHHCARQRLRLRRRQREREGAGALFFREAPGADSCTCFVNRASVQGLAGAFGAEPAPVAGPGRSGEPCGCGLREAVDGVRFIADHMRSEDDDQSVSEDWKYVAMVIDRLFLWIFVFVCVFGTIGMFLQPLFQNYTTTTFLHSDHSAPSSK
- EXPERIMENT_NOTES: Receptor function α4β2, Ca++ flux
- Assay type: cell-based
- EXPERIMENTAL_CONDITIONS: low sensitivity subtype (LS)
RESULT_TYPE: IC50 (nM)
Give bare numbers, in nM.

Problem: Data request, read-out IC50, for C(=C\[C@H]1CCNC1)/c1cncnc1 [Compound 1]
Solution: 450

====

- EXPERIMENT_NOTES: 13-week repeat-dose oral toxicity in rats
- Format: in vivo, rat
- EXPERIMENTAL_CONDITIONS: both sexes, rat, in vivo, po
RESULT_TYPE: Tmax

Problem: Data request, read-out Tmax, for C(=C\[C@H]1CCNC1)/c1cncnc1 [Compound 1]
Solution: 0.5 to 2 h

====

- EXPERIMENT_NOTES: Single dose pharmacokinetics, mouse
- Type: in vivo, Swiss mouse
- EXPERIMENTAL_CONDITIONS: Swiss, mouse, brain, oral; 1 mg/kg orally; read-out: brain exposure as share of plasma exposure
RESULT_TYPE: Kp

Problem: Data request, read-out Kp, for `C(=C\[C@H]1CCNC1)/c1cncnc1`
Solution: ~0.3

====

- EXPERIMENT_NOTES: Single dose pharmacokinetics, rat
- Format: in vivo, Sprague-Dawley rat
- EXPERIMENTAL_CONDITIONS: male, Sprague-Dawley, plasma; S-D rat, 3 mg/kg Compound 1, oral
RESULT_TYPE: Cmax (ng/mL)
Numbers only, in ng/mL.

Problem: Data request, read-out Cmax, for `C(=C\[C@H]1CCNC1)/c1cncnc1`
Solution: 169

====

- EXPERIMENT_NOTES: 7-day pilot intranasal toxicity and toxicokinetic study in rats
- EXPERIMENTAL_CONDITIONS: female, rat, plasma, inhaled or intranasal, 0.9 mg/day, AUC0-t, Female, Day 7, 0.9 mg/day (0.5%), intranasal TID
RESULT_TYPE: AUC(0-t) (ng·h/mL)
Numbers only, in ng·h/mL.

Problem: Data request, read-out AUC(0-t), for `C(=C\[C@H]1CCNC1)/c1cncnc1`
Solution: 148

====

- EXPERIMENT_NOTES: Single dose pharmacokinetics studies
- Format: in vivo
- EXPERIMENTAL_CONDITIONS: Swiss (mouse), Sprague-Dawley (rat), cynomolgus (monkey), plasma, oral, rat and monkey, read-out: time to reach maximum concentration (Tmax)
RESULT_TYPE: Tmax

Problem: Data request, read-out Tmax, for `C(=C\[C@H]1CCNC1)/c1cncnc1`
Solution: 0.167 to 2.25 h

====

- ASSAY_TARGET: human α4β2 (Homo sapiens, UniProt P17787+P43681)
- EXPERIMENT_NOTES: Receptor function α4β2, Ca++ flux
- Format: cell-based
- EXPERIMENTAL_CONDITIONS: a4b2 LS (low sensitivity), 37° C., Ca++ Flux
RESULT_TYPE: EC50 (µM)
Numbers only, in µM.

Problem: Data request, read-out EC50, for C(=C\[C@H]1CCNC1)/c1cncnc1 [Compound 1]
Solution: 5.3

====

- EXPERIMENT_NOTES: 7-day pilot intranasal toxicity and toxicokinetic study in rats
- EXPERIMENTAL_CONDITIONS: female, rat, plasma, inhaled or intranasal, 0.9 mg/day, Tmax, Female, Day 7, 0.9 mg/day (0.5%), intranasal TID
RESULT_TYPE: Tmax (h)
One number for each entry, in h.

Problem: Data request, read-out Tmax, for C(=C\[C@H]1CCNC1)/c1cncnc1 [Compound 1]
Solution: 12.1

====

- ASSAY_TARGET: muscle receptor (α1β1δγ) (Homo sapiens, UniProt P02708+P07510+Q07001)
- Construct: endogenous in cells
- Sequence (P11230 24-501): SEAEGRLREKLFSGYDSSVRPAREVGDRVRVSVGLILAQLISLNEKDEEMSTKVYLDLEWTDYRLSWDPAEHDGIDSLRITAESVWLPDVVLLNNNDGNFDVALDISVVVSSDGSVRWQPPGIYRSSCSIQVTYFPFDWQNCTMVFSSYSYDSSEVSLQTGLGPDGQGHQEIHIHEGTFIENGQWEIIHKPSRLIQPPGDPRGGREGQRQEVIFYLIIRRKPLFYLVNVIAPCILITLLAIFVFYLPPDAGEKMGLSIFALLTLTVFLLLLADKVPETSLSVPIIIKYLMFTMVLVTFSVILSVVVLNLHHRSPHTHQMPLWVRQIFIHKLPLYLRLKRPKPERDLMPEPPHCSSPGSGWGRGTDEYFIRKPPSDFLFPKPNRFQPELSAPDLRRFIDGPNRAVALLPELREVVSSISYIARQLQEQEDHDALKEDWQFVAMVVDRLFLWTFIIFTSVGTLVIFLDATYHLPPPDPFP
- Sequence (P02708 21-457): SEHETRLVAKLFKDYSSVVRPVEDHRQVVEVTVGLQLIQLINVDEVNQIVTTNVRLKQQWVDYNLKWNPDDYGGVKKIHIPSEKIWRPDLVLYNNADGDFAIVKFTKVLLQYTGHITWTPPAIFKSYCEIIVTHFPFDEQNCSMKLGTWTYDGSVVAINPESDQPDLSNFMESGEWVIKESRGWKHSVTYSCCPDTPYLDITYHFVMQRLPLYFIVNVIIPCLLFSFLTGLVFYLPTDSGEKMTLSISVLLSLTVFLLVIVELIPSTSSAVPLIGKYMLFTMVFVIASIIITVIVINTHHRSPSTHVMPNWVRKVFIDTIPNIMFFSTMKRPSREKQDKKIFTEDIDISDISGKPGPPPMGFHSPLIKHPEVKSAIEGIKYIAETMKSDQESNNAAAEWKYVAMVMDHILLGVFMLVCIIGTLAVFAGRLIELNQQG
- Sequence (Q07001 22-517): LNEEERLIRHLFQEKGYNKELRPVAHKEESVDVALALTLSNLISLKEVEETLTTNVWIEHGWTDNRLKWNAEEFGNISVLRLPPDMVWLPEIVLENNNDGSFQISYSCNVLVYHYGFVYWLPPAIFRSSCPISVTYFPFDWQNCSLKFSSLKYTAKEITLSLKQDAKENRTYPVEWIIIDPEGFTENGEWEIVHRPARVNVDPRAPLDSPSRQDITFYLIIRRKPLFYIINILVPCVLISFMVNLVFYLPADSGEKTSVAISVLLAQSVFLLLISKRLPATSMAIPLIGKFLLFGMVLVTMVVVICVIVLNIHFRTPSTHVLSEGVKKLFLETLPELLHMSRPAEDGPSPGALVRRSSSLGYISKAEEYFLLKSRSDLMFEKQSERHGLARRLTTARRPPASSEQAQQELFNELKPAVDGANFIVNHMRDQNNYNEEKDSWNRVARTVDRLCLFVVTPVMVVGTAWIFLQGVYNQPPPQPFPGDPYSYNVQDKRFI
- Sequence (P07510 23-517): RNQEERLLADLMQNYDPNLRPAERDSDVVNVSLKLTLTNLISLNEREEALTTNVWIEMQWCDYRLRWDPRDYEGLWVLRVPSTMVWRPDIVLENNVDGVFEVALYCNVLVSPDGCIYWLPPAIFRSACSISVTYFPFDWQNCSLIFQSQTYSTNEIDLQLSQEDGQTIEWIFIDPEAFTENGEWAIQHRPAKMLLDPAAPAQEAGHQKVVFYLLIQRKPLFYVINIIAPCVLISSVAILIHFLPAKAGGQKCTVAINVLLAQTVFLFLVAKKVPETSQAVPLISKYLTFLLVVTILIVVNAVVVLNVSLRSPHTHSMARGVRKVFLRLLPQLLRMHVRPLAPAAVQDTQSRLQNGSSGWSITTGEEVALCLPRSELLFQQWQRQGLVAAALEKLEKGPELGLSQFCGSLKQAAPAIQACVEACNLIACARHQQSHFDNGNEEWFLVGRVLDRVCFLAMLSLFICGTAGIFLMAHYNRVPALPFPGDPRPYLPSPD
- EXPERIMENT_NOTES: Receptor binding muscle receptor, TE-671 membranes
RESULT_TYPE: pKi
Give bare numbers, as −log10 of the molar value.

Problem: # returns recorded pKi (system: muscle receptor (α1β1δγ) (Homo sapiens, UniProt P02708+P07510+Q07001)) for C(=C\[C@H]1CCNC1)/c1cncnc1 [Compound 1]
Solution: 4.44

====

- EXPERIMENT_NOTES: 7-day pilot intranasal toxicity and toxicokinetic study in rats
- EXPERIMENTAL_CONDITIONS: female, rat, plasma, inhaled or intranasal, 10.8 mg/day, Tmax, Female, Day 7, 10.8 mg/day (6%), intranasal TID
RESULT_TYPE: Tmax (h)
Give bare numbers, in h.

Problem: Data request, read-out Tmax, for C(=C\[C@H]1CCNC1)/c1cncnc1 [Compound 1]
Solution: 6.08

====

- EXPERIMENT_NOTES: Single dose pharmacokinetics, monkey
- Type: in vivo, Cyno monkey
- EXPERIMENTAL_CONDITIONS: cynomolgus monkey, plasma; Cyno monkey, 5 mg/kg [14C]-Compound 1, 20-minute intravenous
RESULT_TYPE: Tmax (min)
Numbers only, in min.

Problem: Data request, read-out Tmax, for `C(=C\[C@H]1CCNC1)/c1cncnc1`
Solution: 20

====

- EXPERIMENT_NOTES: 7-day pilot intranasal toxicity and toxicokinetic study in rats
- EXPERIMENTAL_CONDITIONS: male, rat, plasma, inhaled or intranasal, 3.6 mg/day, Tmax, Male, Day 1, 3.6 mg/day (2%), intranasal TID
RESULT_TYPE: Tmax (h)
Numbers only, in h.

Problem: Data request, read-out Tmax, for C(=C\[C@H]1CCNC1)/c1cncnc1 [Compound 1]
Solution: 6.08

====

- EXPERIMENT_NOTES: Single dose pharmacokinetics, monkey
- Type: in vivo, Cyno monkey
- EXPERIMENTAL_CONDITIONS: cynomolgus monkey, plasma; Cyno monkey, 5 mg/kg [14C]-Compound 1, 20-minute intravenous, t = 168 h; read-out: AUC0-1
RESULT_TYPE: AUC(0-t) (ng·h/mL)
Answers are plain numbers, in ng·h/mL.

Problem: Data request, read-out AUC(0-t), for C(=C\[C@H]1CCNC1)/c1cncnc1 [Compound 1]
Solution: 1530

====

- ASSAY_TARGET: human α4β2 (Homo sapiens, UniProt P17787+P43681)
- EXPERIMENT_NOTES: Receptor function α4β2, Ca++ flux
- Type: cell-based
- EXPERIMENTAL_CONDITIONS: Human a4b2, Ca++ Flux
RESULT_TYPE: EC50
Form entry: enter the amount, then its unit.

Problem: Data request, read-out EC50, for C(=C\[C@H]1CCNC1)/c1cncnc1 [Compound 1]
Solution: 5.3 µM
